Tested on: OVCAR-3 ovarian
Experiment: NCI tumour cell line growth inhibition, 48 h
assay-endpoint: TGI

C=C(C)C1CC=C(C(=O)O)CC1 (stereo unspecified); 1660 µM
CC12CN(CC[N+](C)(C)C)CC1(C)C1CCC2O1 (stereo unspecified); > 100 µM
CSc1ccc(-c2cn3ccsc3n2)c(O)c1; > 100 µM
CCOC(=O)c1ccc2c(c1)nc1n2C(c2c(F)cccc2F)SC1 (stereo unspecified); 43.4 µM
CC(C)C1C(=O)N2CCCC2C2(O)OC(NC(=O)C3C=C4c5cccc6[nH]cc(c56)CC4N(C)C3)(C(C)C)C(=O)N12 (stereo unspecified); 80.6 µM
Oc1c(Br)cc(Br)cc1CN(Cc1cc(Br)cc(Br)c1O)C1CCCCC1; 53.8 µM
CCN1C(=O)N(CC)C2C1NN=c1s/c(=C3\C(=O)N(CCC(C)C)c4ccccc43)c(=O)n12 (stereo unspecified); 4.33 µM
CCCCCCCCCOC(=S)NC; 36.1 µM
COC(=O)C1=CC(O)CCC1c1ccc(OC)cc1 (stereo unspecified); > 100 µM
CC(=O)[O-].CC(=O)[O-].[Mn+2].c1ccc(/C(=N\Nc2ccccn2)c2ccccn2)cc1; 0.00913 µM
N#CN=Nc1cc(Cl)c(N=NC#N)cc1Cl; > 100 µM
